# Test system: A172
# method-summary: MTT assay, brain cancer cell line
# Assay type: cell-based
# experimental-context: Homo sapiens, A 172, 120 h, NSC-30049 1.0 μM, read-out: IC50 of TMZ
assay-readout: IC50

Query: Report IC50 for Cn1nnc2c(C(N)=O)ncn2c1=O [TMZ, Temozolomide] please.
Result: 89.5 µM

* * *

# Test system: HCT-116 + ch3
# method-summary: MTT assay, MMR-proficient colon cancer cell line
# Format: cell-based
# experimental-context: NSC-30049 5.0 μM, 48 h, read-out: IC50 of oxaliplatin
assay-readout: pIC50
Scale: pIC50 equals -log10([C]), with [C] in mol/L.

Query: Report pIC50 for O=C1[O][Pt]2([NH][C@@H]3CCCC[C@H]3[NH]2)[O]C1=O [Oxaliplatin, oxaliplatin] please.
Result: 7.52

* * *

# Tested on: HCT-116
# method-summary: MTT assay, MMR-deficient colon cancer cell line
# Type: cell-based
# experimental-context: NSC-30049 5.0 μM, 48 h, read-out: IC50 of oxaliplatin
assay-readout: IC50 (nM)
Number in nM, nothing else.

Query: Tell me reported IC50 for O=C1[O][Pt]2([NH][C@@H]3CCCC[C@H]3[NH]2)[O]C1=O [Oxaliplatin, oxaliplatin] , tested with HCT-116.
Result: 20

* * *

# Test system: HT29
# method-summary: MTT assay, MMR-proficient colon cancer cell line
# Format: cell-based
# experimental-context: Homo sapiens, HT-29, 72 h, NSC-30049 0.5 μM, 72 h, read-out: IC50 of TMZ
assay-readout: IC50 (µM)
Number in µM, nothing else.

Query: Report IC50 for Cn1nnc2c(C(N)=O)ncn2c1=O [TMZ, Temozolomide] please.
Result: 1270

* * *

# Tested on: LoVo
# method-summary: MTT assay, MMR-deficient colon cancer cell line
# Assay type: cell-based
# experimental-context: NSC-30049 1.0 μM, 48 h, read-out: IC50 of oxaliplatin
assay-readout: pIC50
Scale: pIC50 equals -log10([C]), with [C] in mol/L.

Query: Report pIC50 for O=C1[O][Pt]2([NH][C@@H]3CCCC[C@H]3[NH]2)[O]C1=O please.
Result: 7.15

* * *

# Tested on: HPAC
# method-summary: MTT assay, pancreatic cancer cell line
# Type: cell-based, human
# experimental-context: HPAC; NSC-30049 1.0 μM; 0.025 μM dFdC; 72 h; read-out: IC50 of CDDP
assay-readout: IC50 (nM)
Number in nM, nothing else.

Query: Report IC50 for [NH2][Pt]([NH2])([Cl])[Cl] [CDDP, cisplatin] please.
Result: 10

* * *

# System: BxPC3
# method-summary: MTT assay, pancreatic cancer cell line
# Format: cell-based, human
# experimental-context: BxPC3; NSC-30049 0 μM; 0.025 μM dFdC; 72 h; read-out: IC50 of CDDP
assay-readout: IC50 (nM)
Number in nM, nothing else.

Query: Report IC50 for [NH2][Pt]([NH2])([Cl])[Cl] [CDDP, cisplatin] please.
Result: 2020

* * *

# System: Mia-PaCa2
# method-summary: MTT assay, pancreatic cancer cell line
# Format: cell-based, human
# experimental-context: Mia-PaCa2; NSC-30049 0 μM; no dFdC; 72 h; read-out: IC50 of CDDP
assay-readout: pIC50
Scale: pIC50 equals -log10([C]), with [C] in mol/L.

Query: Report pIC50 for [NH2][Pt]([NH2])([Cl])[Cl] [CDDP, cisplatin] please.
Result: 4.65
